log10 Ki values by entry
system: 5-HT7 receptor (Rattus norvegicus (Rat), UniProt P32305)
Sequence (P32305 whole entry): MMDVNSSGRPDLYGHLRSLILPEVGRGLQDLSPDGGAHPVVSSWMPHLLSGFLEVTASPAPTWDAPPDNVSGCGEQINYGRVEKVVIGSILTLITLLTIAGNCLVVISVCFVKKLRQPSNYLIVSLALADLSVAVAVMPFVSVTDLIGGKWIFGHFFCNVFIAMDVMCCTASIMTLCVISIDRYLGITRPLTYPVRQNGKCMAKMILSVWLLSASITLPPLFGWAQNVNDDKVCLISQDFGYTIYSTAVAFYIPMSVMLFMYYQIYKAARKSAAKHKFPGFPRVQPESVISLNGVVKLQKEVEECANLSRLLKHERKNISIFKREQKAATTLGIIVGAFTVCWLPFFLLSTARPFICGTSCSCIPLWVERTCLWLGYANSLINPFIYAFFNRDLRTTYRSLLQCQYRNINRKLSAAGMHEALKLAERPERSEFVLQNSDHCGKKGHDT
method summary: 5-HT7 receptor binding assay ([3H]-5-CT)
stated conditions: rat hypothalamus membrane, [3H]-5-CT
parameter measured: log10 Ki (log10 of the value in nM)

compound="CC1CN(C)C(=O)c2cc(OCCCN3CCC(c4noc5cc(F)ccc45)CC3)ccc21 (stereo not shown) [Compound 10]" parameter_measured="log10 Ki" measurement=0.92
compound="O=C1NCCc2ccc(OCCCN3CCN(c4cccc(Cl)c4Cl)CC3)cc21 [A, reference compound]" parameter_measured="log10 Ki" measurement=2.40
compound="CCN1CCc2ccc(OCCCN3CCC(c4noc5cc(F)ccc45)CC3)cc2C1=O [Compound 7]" parameter_measured="log10 Ki" measurement=1.10
compound="CN1CCc2c(F)cc(OCCCN3CCC(c4noc5cc(F)ccc45)CC3)cc2C1=O [Compound 9]" parameter_measured="log10 Ki" measurement=0.90
compound="Cc1nc2ccc(OCCCN3CCN(c4cccc(C(F)(F)F)c4)CC3)cc2c(=O)n1C [Compound 31]" parameter_measured="log10 Ki" measurement=0.92
compound="CN1CCc2ccc(OCCCN3CCN(c4nsc5ccccc45)CC3)cc2C1=O [Compound 14]" parameter_measured="log10 Ki" measurement=1.23
compound="CN1CCc2ccc(OCCCN3CCC(c4noc5cc(F)ccc45)CC3)cc2C1=O [Compound 5]" parameter_measured="log10 Ki" measurement=0.77
compound="COc1ccccc1N1CCN(CCCOc2ccc3c(c2)C(=O)N(C)CC3)CC1 [Compound 22]" parameter_measured="log10 Ki" measurement=1.45
compound="CN1CCc2ccc(OCCCN3CCN(c4ncccn4)CC3)cc2C1=O [Compound 24]" parameter_measured="log10 Ki" measurement=1.00
compound="CN1CCc2ccc(OCC(O)CN3CCC(c4noc5cc(F)ccc45)CC3)cc2C1=O (stereo not shown) [Compound 4]" parameter_measured="log10 Ki" measurement=1.01
compound="O=C1CCc2ccc(OCCCCN3CCC(c4noc5cc(F)ccc45)CC3)cc2N1 [E, reference compound]" parameter_measured="log10 Ki" measurement=1.55
compound="CN1COc2ccc(OCCCN3CCC(c4noc5cc(F)ccc45)CC3)cc2C1=O [Compound 11]" parameter_measured="log10 Ki" measurement=1.05
compound="O=C1NCCc2ccc(OCCCN3CCC(c4noc5cc(F)ccc45)CC3)cc21 [Compound 12]" parameter_measured="log10 Ki" measurement=0.95
compound="Cn1cnc2ccc(OCCCCN3CCN(c4cccc(C(F)(F)F)c4)CC3)cc2c1=O [Compound 28]" parameter_measured="log10 Ki" measurement=0.87
compound="CN1CCc2ccc(OCCCN3CCN(c4cccc5sccc45)CC3)cc2C1=O [B, reference compound]" parameter_measured="log10 Ki" measurement=2.76
compound="Cc1cc(OCCCN2CCC(c3noc4cc(F)ccc34)CC2)cc2c1CCN(C)C2=O [Compound 8]" parameter_measured="log10 Ki" measurement=0.83
compound="CN1CCc2ccc(OCCCCN3CCN(c4cccc(C(F)(F)F)c4)CC3)cc2C1=O [Compound 3]" parameter_measured="log10 Ki" measurement=1.37
compound="CN1CCc2ccc(OCCCCN3CCC(c4noc5cc(F)ccc45)CC3)cc2C1=O [Compound 1]" parameter_measured="log10 Ki" measurement=1.10
compound="O=C1NCCc2ccc(OCCCN3CCN(c4ccc5sccc5c4)CC3)cc21 [C, reference compound]" parameter_measured="log10 Ki" measurement=2.70
compound="CN1CCc2ccc(OCCCN3CCN(c4ccccc4F)CC3)cc2C1=O [Compound 20]" parameter_measured="log10 Ki" measurement=1.48
compound="CN1CCc2ccc(OCCCN3CCC(C(=O)c4ccc(F)cc4)CC3)cc2C1=O [Compound 25]" parameter_measured="log10 Ki" measurement=1.03
compound="Cn1c(=O)c2cc(OCCCN3CCN(c4cccc5sccc45)CC3)ccc2n(C)c1=O [D, reference compound]" parameter_measured="log10 Ki" measurement=2.78

* * *

system: 5-HT1A (Rattus norvegicus (Rat), UniProt P19327)
Sequence (P19327 whole entry): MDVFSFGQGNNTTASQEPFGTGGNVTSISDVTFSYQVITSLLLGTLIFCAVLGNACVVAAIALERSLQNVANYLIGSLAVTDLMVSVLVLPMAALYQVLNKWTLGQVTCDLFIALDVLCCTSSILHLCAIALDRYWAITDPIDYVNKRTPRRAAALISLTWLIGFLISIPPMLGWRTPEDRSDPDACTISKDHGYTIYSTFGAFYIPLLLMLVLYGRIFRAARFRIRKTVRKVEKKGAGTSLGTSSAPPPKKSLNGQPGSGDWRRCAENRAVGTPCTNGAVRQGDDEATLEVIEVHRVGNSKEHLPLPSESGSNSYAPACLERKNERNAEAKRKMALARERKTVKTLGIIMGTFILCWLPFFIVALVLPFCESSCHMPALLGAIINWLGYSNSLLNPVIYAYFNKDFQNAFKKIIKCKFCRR
method summary: 5-HT1A receptor binding assay (3H-8-OH-DPAT)
stated conditions: rat cortex membrane, 3H-8-OH-DPAT
Under this convention, rule met denotes Ki strictly below 20 nM and rule not met denotes Ki at or above 20 nM.

compound="O=C1CCc2ccc(OCCCCN3CCC(c4noc5cc(F)ccc45)CC3)cc2N1 [E, reference compound]" assigned_category="rule not met"
compound="CC1CN(C)C(=O)c2cc(OCCCN3CCC(c4noc5cc(F)ccc45)CC3)ccc21 (centres unmarked)" assigned_category="rule met"
compound=COc1ccccc1N1CCN(CCCCOc2ccc3c(c2)C(=O)N(C)CC3)CC1 assigned_category="rule met"
compound=CN1CCc2ccc(OCCCN3CCN(c4ccccc4F)CC3)cc2C1=O assigned_category="rule not met"
compound=CN1CCc2ccc(OCCCCN3CCC(c4noc5cc(F)ccc45)CC3)cc2C1=O assigned_category="rule met"
compound=O=C1NCCc2ccc(OCCCN3CCC(c4noc5cc(F)ccc45)CC3)cc21 assigned_category="rule met"
compound=Cn1cnc2ccc(OCCCCN3CCc4ccccc4C3)cc2c1=O assigned_category="rule not met"
compound=Cn1cnc2ccc(OCCCCN3CCN(c4cccc(C(F)(F)F)c4)CC3)cc2c1=O assigned_category="rule met"

* * *

method summary: Catalepsy assay
stated conditions: both, Kunming, mouse, in vivo, po
parameter measured: log10(ED50) (log10 of the value in mg/kg)

compound=CN1CCc2ccc(OCCCN3CCN(c4ncccn4)CC3)cc2C1=O measurement=1.67
compound=COc1ccccc1N1CCN(CCCOc2ccc3c(c2)C(=O)N(C)CC3)CC1 measurement=1.72
compound=CN1CCc2ccc(OCCCN3CCN(c4nsc5ccccc45)CC3)cc2C1=O measurement=1.51
compound=CN1CCc2ccc(OCCCN3CCC(c4noc5cc(F)ccc45)CC3)cc2C1=O measurement=1.54
compound="O=C(CCCN1CCC(O)(c2ccc(Cl)cc2)CC1)c1ccc(F)cc1 [haloperidol, reference compound]" measurement=-0.36

* * *

Ki values by entry
system: 5-HT2A (Rattus norvegicus (Rat), UniProt P14842)
Sequence (P14842 whole entry): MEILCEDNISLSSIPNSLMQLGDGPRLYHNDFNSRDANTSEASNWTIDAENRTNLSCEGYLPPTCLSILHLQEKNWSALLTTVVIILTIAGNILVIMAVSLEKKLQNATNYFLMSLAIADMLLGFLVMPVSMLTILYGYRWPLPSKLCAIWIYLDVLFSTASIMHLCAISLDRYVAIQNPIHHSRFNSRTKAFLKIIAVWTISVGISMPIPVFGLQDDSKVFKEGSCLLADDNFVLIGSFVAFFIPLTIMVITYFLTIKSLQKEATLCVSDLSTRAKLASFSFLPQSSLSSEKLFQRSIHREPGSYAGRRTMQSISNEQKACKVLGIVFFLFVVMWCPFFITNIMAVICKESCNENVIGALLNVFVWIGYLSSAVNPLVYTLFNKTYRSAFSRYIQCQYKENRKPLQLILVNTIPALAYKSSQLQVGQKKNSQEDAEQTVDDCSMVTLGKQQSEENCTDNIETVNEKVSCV
method summary: 5-HT2A receptor binding assay ([3H]-Ketanserin)
stated conditions: read-out: Ki (nM) 5-HT2A; rat cortex membrane, [3H]-Ketanserin
parameter measured: Ki (nM)

compound=COc1ccccc1N1CCN(CCCCOc2ccc3c(c2)C(=O)N(C)CC3)CC1 parameter_measured=Ki bound_operator== measurement=36.8
compound="CC1CN(C)C(=O)c2cc(OCCCN3CCC(c4noc5cc(F)ccc45)CC3)ccc21 (stereo not shown)" parameter_measured=Ki bound_operator== measurement=12.9
compound=CN1CCc2ccc(OCCCN3CCN(c4ccccn4)CC3)cc2C1=O parameter_measured=Ki bound_operator== measurement=369
compound=Cn1cnc2ccc(OCCCCN3CCN(Cc4ccccc4)CC3)cc2c1=O parameter_measured=Ki bound_operator=> measurement=2000

* * *

system: 5-HT1A (Rattus norvegicus (Rat), UniProt P19327)
method summary: 5-HT1A receptor binding assay (3H-8-OH-DPAT)
stated conditions: rat cortex membrane, 3H-8-OH-DPAT
parameter measured: Ki (nM)

molecule="O=C1NCCc2ccc(OCCCN3CCN(c4cccc(Cl)c4Cl)CC3)cc21 [A, reference compound]" parameter_measured=Ki measurement=14.3
molecule="CN1CCc2ccc(OCCCN3CCN(c4ccc(F)cc4)CC3)cc2C1=O [Compound 19]" parameter_measured=Ki measurement=746
molecule="CN1CCc2ccc(OCCCN3CCC(c4noc5cc(F)ccc45)CC3)cc2C1=O [Compound 5]" parameter_measured=Ki measurement=2.4

* * *

system: D2 (Rattus norvegicus (Rat))
Sequence (P61169 whole entry): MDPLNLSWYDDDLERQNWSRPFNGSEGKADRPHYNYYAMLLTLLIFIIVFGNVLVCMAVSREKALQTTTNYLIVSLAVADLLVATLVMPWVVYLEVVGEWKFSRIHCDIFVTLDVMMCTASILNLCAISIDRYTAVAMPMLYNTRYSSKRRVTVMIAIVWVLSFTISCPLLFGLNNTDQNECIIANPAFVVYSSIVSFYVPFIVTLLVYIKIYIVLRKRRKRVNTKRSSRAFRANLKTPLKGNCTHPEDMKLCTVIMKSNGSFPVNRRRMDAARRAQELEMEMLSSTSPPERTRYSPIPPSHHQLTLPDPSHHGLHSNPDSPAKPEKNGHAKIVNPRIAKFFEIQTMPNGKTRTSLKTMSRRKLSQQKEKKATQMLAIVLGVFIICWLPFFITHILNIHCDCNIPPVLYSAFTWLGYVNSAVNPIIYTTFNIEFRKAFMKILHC
method summary: D2 receptor binding assay (3H-Spiperone)
stated conditions: read-out: Ki (nM) D2; rat striatum membrane, 3H-Spiperone
Under this convention, Fulfilled denotes Ki strictly below 10 nM and Not fulfilled denotes Ki at or above 10 nM.

compound="CC1CN(C)C(=O)c2cc(OCCCN3CCC(c4noc5cc(F)ccc45)CC3)ccc21 (stereo not drawn)" assigned_category=Fulfilled
compound=CN1CCc2ccc(OCCCN3CCN(c4ccccc4)CC3)cc2C1=O assigned_category="Not fulfilled"
compound=COc1ccccc1N1CCN(CCCCOc2ccc3c(c2)C(=O)N(C)CC3)CC1 assigned_category="Not fulfilled"
compound=CN1CCc2c(F)cc(OCCCN3CCC(c4noc5cc(F)ccc45)CC3)cc2C1=O assigned_category=Fulfilled
compound=COc1ccccc1N1CCN(CCCOc2ccc3c(c2)C(=O)N(C)CC3)CC1 assigned_category=Fulfilled
compound=Cn1cnc2ccc(OCCCCN3CCc4ccccc4C3)cc2c1=O assigned_category="Not fulfilled"
compound=Cn1cnc2ccc(OCCCCN3CCN(c4ccc(F)cc4)CC3)cc2c1=O assigned_category="Not fulfilled"
compound="CN1CCc2ccc(OCC(O)CN3CCC(c4noc5cc(F)ccc45)CC3)cc2C1=O (stereo not drawn)" assigned_category="Not fulfilled"
compound=CN1CCc2ccc(OCCCN3CCN(c4ncccn4)CC3)cc2C1=O assigned_category="Not fulfilled"
